From: PubChem BioAssay

target: Streptavidin (Streptomyces avidinii) (UniProt P22629); assay: compounds binding control protein streptavidin – biophysical, small-molecule microarray, 635/667 nm fluorescence, artefact control for SMM compound annotation, primary screen (AID 1147); conditions: higher = more signal;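 note: signal reflects streptavidin binding to arrayed compounds as a control protein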
Sequence (P22629 whole entry, looked up): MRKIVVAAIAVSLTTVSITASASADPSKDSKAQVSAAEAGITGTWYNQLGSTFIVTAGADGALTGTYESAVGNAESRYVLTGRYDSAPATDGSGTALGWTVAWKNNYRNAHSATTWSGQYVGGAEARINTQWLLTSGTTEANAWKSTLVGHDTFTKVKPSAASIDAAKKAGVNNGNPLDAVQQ
Would you please tag the item 1.0 when its composite z-score is 0.6 or above, and 0.0 when it is below?

Consider the following illustrative entries.
CC(C)CNC(=O)[C@@]1(Cc2ccccc2I)c2ccccc2C(=O)N(Cc2ccccc2C(F)(F)F)[C@H]1c1ccc(CO)cc1	0.0
C=CCN(Cc1ccccc1)C(=O)C(c1cccs1)N(C(=O)/C=C\C(=O)O)c1ccc(CCOCCO)cc1 (stereo unspecified)	0.0
CCCCCCc1nc(-c2ccc(-c3ccc(Cl)c(Cl)c3)o2)c(C)c2c1[Si](C(C)C)(C(C)C)OC2	0.0

Hello, I need to know if `COC(=O)[C@@]1(Cc2ccccc2)[C@H]2c3cc(C(=O)N4CCCC4)n(Cc4c(CO)[nH]cc(C)c4=O)c3C[C@H]2CN1C(=O)c1ccccc1` has measured composite z-score not below 0.6. Thanks!
1.0

// same read-out, input: `CCCC=C(CCC)[C@@H](NC(=O)OCC(C)C)c1ccccc1`
0.0

// same read-out, input: `C=CC[C@@]1(C(=O)N2CCCCC2)N=C(c2ccc(OCCCO)cc2)O[C@@H]1c1ccccc1CN=[N+]=[N-]`
1.0

// same read-out, input: `COc1ccc([Si](C)(C)[C@@H]2[C@@H](CCn3cc(CCO)nn3)O[C@]3(C(=O)N(Cc4cccc(N5C(=O)c6cccc7cccc5c67)c4)c4ccccc43)[C@H]2C)cc1`
1.0

// same read-out, input: OB1C=CCC(CCc2ccccc2)O1 (stereo unspecified)
0.0

// same read-out, input: `O=C(CS)NCCCCCNC(=O)[C@H]1C[C@H]2C(=O)NCC(=O)N2[C@H]1c1ccc(O)cc1`
0.0

// same read-out, input: `CN(C)CCCC[C@@H]1NC(=O)[C@H]2C[C@@H](C(=O)NCCCCCN)[C@@H](c3cccc(OCCO)c3)N2C1=O`
1.0

// same read-out, input: `C=CC[C@]1(C(N)=O)COC(c2ccc(OCCCO)cc2)=N1`
0.0

----------
test: growth of efflux-deficient E. coli DRC39 – strain DRC39, OD650, 24 h, E. coli filamentation inducers, primary screen (AID 1178);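 note: growth measured as culture turbidity by optical density at 650 nm; test concentration not given here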; conditions: E. coli DRC39 acrAB, higher = more signal, called active from +8 up or from −8 down
Would you please tag the item T when its z-score is 0.6 or above, and F when it is below?

Consider the following illustrative entries.
COC(=O)[C@@]1(Cc2ccccc2)[C@H]2c3cc(C(=O)N(C)C)n(Cc4ccc(OC)c(OC)c4)c3C[C@H]2CN1C(=O)c1ccccc1	F
O=C1O[C@H](c2ccccc2)[C@H](c2ccccc2)N2[C@H]1[C@@H](C(=O)N1CCN(c3ncccn3)CC1)[C@]1(C(=O)Nc3ccc(C#CC4=CCCCC4)cc31)[C@H]2c1ccccc1OCCO	F
COCCOC(=O)N1C(=O)[C@@]2(c3ccccc31)[C@H](C(=O)N1CCCCCCC1)[C@H]1C(=O)O[C@H](c3ccccc3)[C@H](c3ccccc3)N1[C@@H]2c1ccc(OCCO)cc1	F
[N-]=[N+]=NCc1ccccc1C[C@@]1(C(=O)NCC(O)CO)N=C(c2ccc(OCCCO)cc2)O[C@@H]1c1ccccc1 (stereo partly drawn)	T

Hello, I need to know if `COC(=O)c1c2oc(c1C(=O)OC)C(=O)NC1(CCCCC1)c1cn(nn1)C[C@H](Cc1ccccc1)NC(=O)N[C@H](CO)CC2` has measured z-score not below 0.6. Thanks!
T

// same read-out, input: `C=CCNC(=O)[C@H]1[C@@H]2C(=O)O[C@@H](c3ccccc3)[C@@H](c3ccccc3)N2[C@@H](c2ccc(OCCO)cc2)[C@]12C(=O)Nc1ccc(C#CCC(C(=O)OC)C(=O)OC)cc12`
T

// same read-out, input: `COC(=O)[C@]1(CCC(=O)OC(C)(C)C)N=C(c2ccc(OCCCO)cc2)O[C@@H]1c1ccccc1`
T

// same read-out, input: O=C1NC(=O)C2C1C=CC(C(O)c1ccc(I)cc1)N2Nc1ccc(Cl)cc1Cl (stereo not drawn)
F
